meta.source: patent US4766131A

# Test system: mice
# Procedure summary: phenyl-benzoquinone (PBQ) writhing test
# Format: in vivo, mouse
# Condition info: sc, 0.25 h; mouse PBQ assay, s.c., 15 min post dose; table 6; read-out: Analgesic activity, s.c. ED50 at 15 min post dose
Counter-ions that a name gives are not always drawn.
// thresholds for ED50 classes: low band: < 6 mg/kg; middle band: ≥ 6 mg/kg and < 10 mg/kg; high band: ≥ 10 mg/kg

Please review the entries below; each comes with its answer.
Compound	Assay system	Label
COc1ccc2c(c1)CCN(CCc1ccc(N)cc1)C2C.Cl.Cl (stereo not drawn) [Example 10]	mice	middle band
COc1cc2c(cc1O)CCN(CCc1ccc(N)cc1)C2C.Cl.Cl (stereo not drawn) [Example 14]	mice	middle band

Ask: Categorize the following entry: COc1ccc2c(c1)CCN(CCc1ccc([N+](=O)[O-])cc1)C2C.Cl.Cl (stereo not drawn) [Example 9]
Reply: high band

Ask: Categorize the following entry: COc1cc2c(cc1OC)C(C)N(CCc1ccccc1N)CC2 (stereo not drawn) [Example 4, dihydrochloride]
Reply: high band

Ask: Categorize the following entry: COc1cc2c(cc1OC)C(C)N(CCc1ccc(N)cc1)CC2 (stereo not drawn) [Example 1]
Reply: middle band
